// provenance: PubChem BioAssay (NCATS)

procedure-text: qHTS of pediatric cancer cell lines to identify multiple opportunities for drug repurposing: Primary screen for DAOY cells (AID 1347090); also: nearly all actives have a fitted effect of over 55% in size; also: potency is read from the fitted curve at half-maximal effect
condition-description: DAOY medulloblastoma viability, CellTiter-Glo luminescence, 48 h; series mostly up to 46 µM
Results filed as inconclusive are left out. Activity calls are given as the source filed them. Calls follow the shape of the dose curve; as a rule, active = well fitted cell-killing curve with a large enough effect; inconclusive = small, poorly fitted or top-dose-only effect; inactive = flat fitted curve, though single readings scatter.
value-type: Potency

> print(dat)
                                    compound  value.type     measured.result
 1                   CCCCCCCCCCCCCCCCCCCCCCO     Potency            inactive
 2  CN(C)C(=O)[C@H](O)[C@H](Cc1ccccc1)NC(=O)c1cc2cc(Cl)ccc2[nH]1     Potency    7.43 µM (active)
 3            CCCCc1ccc2nc(NC(=O)OC)[nH]c2c1     Potency  0.0266 µM (active)
 4  O=c1c(O)c(-c2ccc(O)cc2O)oc2cc(O)cc(O)c12     Potency            inactive
 5  Nc1ccn([C@@H]2O[C@H](CO)[C@@H](O)C2O)c(=O)n1 (stereo partly drawn)     Potency            inactive
 6  CN(C)c1ccc(O)c2c1C[C@H]1C[C@H]3[C@H](N(C)C)C(=O)C(C(N)=O)=C(O)[C@@]3(O)C(=O)C1=C2O     Potency            inactive
 7  CC(=O)NC[C@H]1CN(c2ccc(N3CCOCC3)c(F)c2)C(=O)O1     Potency            inactive
 8     NC(=NCc1ccccc1)NC(=O)c1nc(Cl)c(N)nc1N     Potency    18.7 µM (active)
 9  CN(C)C(=O)COC(=O)Cc1ccc(OC(=O)c2ccc(N=C(N)N)cc2)cc1     Potency            inactive
10  O=C1NC(=O)C(c2ccccc2[N+](=O)[O-])=C1Nc1ccc(O)c(Cl)c1     Potency            inactive
11   CNC[C@@H](O)[C@@H](O)[C@H](O)[C@H](O)CO     Potency            inactive
12  CC(C)c1nc(CN(C)C(=O)N[C@H](C(=O)N[C@@H](Cc2ccccc2)C[C@H](O)[C@H](Cc2ccccc2)NC(=O)OCc2cncs2)C(C)C)cs1     Potency            inactive
13                                NCCCCNCCCN     Potency            inactive
14                Cc1cc(C2CCCCC2)n(O)c(=O)c1     Potency    10.6 µM (active)
15                        CC(=O)Nc1ccc(O)cc1     Potency            inactive
16  COc1ccc(C2(C#N)CCC(C(=O)O)CC2)cc1OC1CCCC1 (stereo not drawn)     Potency            inactive
17                     Nc1ccc(S(N)(=O)=O)cc1     Potency            inactive
18  COc1cc2c(cc1OC)C1CC(=O)C(CC(C)C)CN1CC2 (stereo not drawn)     Potency            inactive
19  Cc1nc2n(c(=O)c1CCN1CCC(c3noc4cc(F)ccc34)CC1)CCCC2     Potency            inactive
20  COc1c(O)cc2c(c1O)[C@@H]1O[C@H](CO)[C@@H](O)[C@H](O)[C@H]1OC2=O     Potency            inactive
21  COc1cc2nc(N3CCN(C(=O)C4CCCO4)CC3)nc(N)c2cc1OC (stereo not drawn)     Potency            inactive
22  Nc1cc(C(Cl)=C(Cl)Cl)c(S(N)(=O)=O)cc1S(N)(=O)=O     Potency            inactive
23             Nc1nc(OCc2ccccc2)c2[nH]cnc2n1     Potency            inactive
